- System: K562 SF3B1 K700E vs K562 SF3B1 WT
- experiment: surviving fraction ratio K562 SF3B1 K700E / K562 SF3B1 WT (each relative to DMSO); higher = less selective killing of SF3B1 K700E cells
- condition-description: 1000nM; 5 days
Where a name gives a salt, the structure may show the parent alone.
Short version: surviving fraction ratio K562 SF3B1 K700E / K562 SF3B1 WT at least 0.9 is satisfied, less is not satisfied.

Solved entries (count: 5):
Query: Could you tell me if the measured surviving fraction ratio K562 SF3B1 K700E / K562 SF3B1 WT of `Cc1nc(Nc2n[nH]c3c2CN(C(=O)N[C@H](CN(C)C)c2ccccc2)C3(C)C)c2sccc2n1` reaches 0.9 or more?
Result: satisfied

Query: Could you tell me if the measured surviving fraction ratio K562 SF3B1 K700E / K562 SF3B1 WT of `CNCc1ccc(-c2[nH]c3cc(F)cc4c3c2CCNC4=O)cc1` reaches 0.9 or more?
Result: not satisfied

Query: Could you tell me if the measured surviving fraction ratio K562 SF3B1 K700E / K562 SF3B1 WT of Cc1ccc(NC(=O)c2ccc(CN3CCN(C)CC3)cc2)cc1Nc1nccc(-c2cccnc2)n1 [imatinibmesylate] reaches 0.9 or more?
Result: satisfied

Query: Could you tell me if the measured surviving fraction ratio K562 SF3B1 K700E / K562 SF3B1 WT of `CCC1=C[C@@H]2CN(C1)Cc1c([nH]c3ccccc13)[C@@](C(=O)OC)(c1cc3c(cc1OC)N(C)[C@H]1[C@@](O)(C(=O)OC)[C@H](OC(C)=O)[C@]4(CC)C=CCN5CC[C@]31[C@@H]54)C2` reaches 0.9 or more?
Result: satisfied

Query: Could you tell me if the measured surviving fraction ratio K562 SF3B1 K700E / K562 SF3B1 WT of CN(Cc1cnc2nc(N)nc(N)c2n1)c1ccc(C(=O)N[C@@H](CCC(=O)O)C(=O)O)cc1 [methotrexate] reaches 0.9 or more?
Result: satisfied

Further cases:
Query: Could you tell me if the measured surviving fraction ratio K562 SF3B1 K700E / K562 SF3B1 WT of `C[C@@H]1CN(CC(=O)Nc2ccc3c(c2)Cc2cccc(-c4cc(=O)cc(N5CCOCC5)o4)c2S3)C[C@H](C)O1` reaches 0.9 or more?
Result: not satisfied

Query: Could you tell me if the measured surviving fraction ratio K562 SF3B1 K700E / K562 SF3B1 WT of `CS(=O)(=O)c1ccc(C(=O)Nc2ccc(Cl)c(-c3ccccn3)c2)c(Cl)c1` reaches 0.9 or more?
Result: satisfied

Query: Could you tell me if the measured surviving fraction ratio K562 SF3B1 K700E / K562 SF3B1 WT of Cn1nnc2c(C(N)=O)ncn2c1=O [temozolomide] reaches 0.9 or more?
Result: not satisfied

Query: Could you tell me if the measured surviving fraction ratio K562 SF3B1 K700E / K562 SF3B1 WT of Cn1cc(C2=Nc3cc(NC(=O)C(N)C4CCCCC4)cc4c3C2=CNNC4=O)cn1 (stereo not drawn) reaches 0.9 or more?
Result: satisfied

Query: Could you tell me if the measured surviving fraction ratio K562 SF3B1 K700E / K562 SF3B1 WT of `C[C@H](CN(C)C)Oc1nc(Nc2cc3cccc(Cl)c3cn2)cnc1C#N` reaches 0.9 or more?
Result: not satisfied

Query: Could you tell me if the measured surviving fraction ratio K562 SF3B1 K700E / K562 SF3B1 WT of `CN1CC[C@H](c2c(O)cc(O)c3c(=O)cc(-c4ccccc4Cl)oc23)[C@H](O)C1` reaches 0.9 or more?
Result: satisfied

Query: Could you tell me if the measured surviving fraction ratio K562 SF3B1 K700E / K562 SF3B1 WT of `Oc1nc(-c2ccc(C(F)(F)F)cc2)nc2c1CSCC2` reaches 0.9 or more?
Result: satisfied

Query: Could you tell me if the measured surviving fraction ratio K562 SF3B1 K700E / K562 SF3B1 WT of `CCc1cc(Nc2nccc(-c3c(-c4ccc(OC)c(C(=O)Nc5c(F)cccc5F)c4)nc4ccccn34)n2)c(OC)cc1N1CCC(N2CCN(S(C)(=O)=O)CC2)CC1` reaches 0.9 or more?
Result: not satisfied

Query: Could you tell me if the measured surviving fraction ratio K562 SF3B1 K700E / K562 SF3B1 WT of `CC(=O)NCC(=O)N1[C@@H]2CC[C@H]1c1ccc(Nc3ncc(C(F)(F)F)c(NC4CCC4)n3)cc12` reaches 0.9 or more?
Result: satisfied

Query: Could you tell me if the measured surviving fraction ratio K562 SF3B1 K700E / K562 SF3B1 WT of `CN(C)CC[C@H](CSc1ccccc1)Nc1ccc(S(=O)(=O)NC(=O)c2ccc(N3CCN(Cc4ccccc4-c4ccc(Cl)cc4)CC3)cc2)cc1[N+](=O)[O-]` reaches 0.9 or more?
Result: not satisfied

Query: Could you tell me if the measured surviving fraction ratio K562 SF3B1 K700E / K562 SF3B1 WT of `CS(=O)(=O)CCNCc1ccc(-c2ccc3ncnc(Nc4ccc(OCc5cccc(F)c5)c(Cl)c4)c3c2)o1` reaches 0.9 or more?
Result: not satisfied

Query: Could you tell me if the measured surviving fraction ratio K562 SF3B1 K700E / K562 SF3B1 WT of `NS(=O)(=O)OC[C@@H]1C[C@@H](n2ccc3c(N[C@H]4CCc5ccccc54)ncnc32)C[C@@H]1O` reaches 0.9 or more?
Result: satisfied

Query: Could you tell me if the measured surviving fraction ratio K562 SF3B1 K700E / K562 SF3B1 WT of `COc1cc2c(cc1O)CC[C@@H]1[C@@H]2CC[C@]2(C)[C@@H](O)CC[C@@H]12` reaches 0.9 or more?
Result: satisfied

Query: Could you tell me if the measured surviving fraction ratio K562 SF3B1 K700E / K562 SF3B1 WT of `Nc1ncn([C@H]2C[C@H](O)[C@@H](CO)O2)c(=O)n1` reaches 0.9 or more?
Result: satisfied

Query: Could you tell me if the measured surviving fraction ratio K562 SF3B1 K700E / K562 SF3B1 WT of `C[C@@H](Oc1cc(-c2cnn(C3CCNCC3)c2)cnc1N)c1c(Cl)ccc(F)c1Cl` reaches 0.9 or more?
Result: satisfied

Query: Could you tell me if the measured surviving fraction ratio K562 SF3B1 K700E / K562 SF3B1 WT of Nc1ccn([C@@H]2O[C@H](CO)[C@@H](O)C2(F)F)c(=O)n1 [gemcitabine.HCl] reaches 0.9 or more?
Result: satisfied

Query: Could you tell me if the measured surviving fraction ratio K562 SF3B1 K700E / K562 SF3B1 WT of `CCN(CC)CCNC(=O)c1c(C)[nH]c(/C=C2\C(=O)Nc3ccc(F)cc32)c1C` reaches 0.9 or more?
Result: not satisfied

Query: Could you tell me if the measured surviving fraction ratio K562 SF3B1 K700E / K562 SF3B1 WT of `Oc1ccc(/C=C/c2cc(O)cc(O)c2)cc1` reaches 0.9 or more?
Result: satisfied

Query: Could you tell me if the measured surviving fraction ratio K562 SF3B1 K700E / K562 SF3B1 WT of `CC1(C)CC(=O)c2c(C(F)(F)F)nn(-c3ccc(C(N)=O)c(N[C@H]4CC[C@H](OC(=O)CN)CC4)c3)c2C1` reaches 0.9 or more?
Result: satisfied

Query: Could you tell me if the measured surviving fraction ratio K562 SF3B1 K700E / K562 SF3B1 WT of `Cc1cn(-c2cc(NC(=O)c3ccc(C)c(Nc4nccc(-c5cccnc5)n4)c3)cc(C(F)(F)F)c2)cn1` reaches 0.9 or more?
Result: satisfied

Query: Could you tell me if the measured surviving fraction ratio K562 SF3B1 K700E / K562 SF3B1 WT of `C[C@]12CC[C@H](O)CC1=CC[C@@H]1[C@@H]2CC[C@]2(C)C(c3cccnc3)=CC[C@@H]12` reaches 0.9 or more?
Result: satisfied

Query: Could you tell me if the measured surviving fraction ratio K562 SF3B1 K700E / K562 SF3B1 WT of `COCC[n+]1c2c(n(Cc3cnccn3)c1C)C(=O)c1ccccc1C2=O` reaches 0.9 or more?
Result: not satisfied

Query: Could you tell me if the measured surviving fraction ratio K562 SF3B1 K700E / K562 SF3B1 WT of `O=C(O)CC[C@H]1CC[C@@](c2cc(F)ccc2F)(S(=O)(=O)c2ccc(Cl)cc2)CC1` reaches 0.9 or more?
Result: satisfied

Query: Could you tell me if the measured surviving fraction ratio K562 SF3B1 K700E / K562 SF3B1 WT of `CC(=O)O[C@H]1C(=O)[C@@]2(C)[C@H]([C@H](OC(=O)c3ccccc3)[C@]3(O)C[C@H](OC(=O)[C@H](O)[C@@H](NC(=O)c4ccccc4)c4ccccc4)C(C)=C1C3(C)C)[C@]1(OC(C)=O)CO[C@@H]1C[C@@H]2O` reaches 0.9 or more?
Result: satisfied
